The measured values listed here are drawn from ChEMBL document CHEMBL1136781.

- STUDY TARGET: ATP-dependent translocase ABCB1 (Homo sapiens)
- EXPERIMENT SUMMARY: Inhibition of P-glycoprotein using ATPase in MDR1 membranes
- Assay type: functional, cell membranes
MEASUREMENT NAME: Activity (nmol/min/mg)
// note: answer is a bare numeric in nmol/min/mg

// recorded Activity for IVERMECTIN : -3.4

---

- STUDY TARGET: ATP-dependent translocase ABCB1 (Homo sapiens)
- EXPERIMENT SUMMARY: Inhibition of P-gp was determined using rhodamine-assay in human CaCo-2 cells
- Assay type: functional, cell-based
- Parameters: concentration or dose not given beside the values
Items are presented alongside their recorded Inhibition.
// note: answer is a bare numeric in %

// recorded Inhibition for O=c1[nH]c2ccccc2n1C1CCN(CCCC(c2ccc(F)cc2)c2ccc(F)cc2)CC1 [PIMOZIDE] : 37

// recorded Inhibition for COCC(=O)O[C@]1(CCN(C)CCCc2nc3ccccc3[nH]2)CCc2cc(F)ccc2[C@@H]1C(C)C : 60

// recorded Inhibition for CCC(C)n1ncn(-c2ccc(N3CCN(c4ccc(OC[C@H]5CO[C@](Cn6cncn6)(c6ccc(Cl)cc6Cl)O5)cc4)CC3)cc2)c1=O (some centres undefined) : 2

// recorded Inhibition for Cc1c(O)cccc1C(=O)N[C@@H](CSc1ccccc1)[C@H](O)CN1C[C@H]2CCCC[C@H]2C[C@H]1C(=O)NC(C)(C)C : 30

---

- STUDY TARGET: ATP-dependent translocase ABCB1 (Mus musculus, UniProt P06795)
- Sequence (P06795 whole entry): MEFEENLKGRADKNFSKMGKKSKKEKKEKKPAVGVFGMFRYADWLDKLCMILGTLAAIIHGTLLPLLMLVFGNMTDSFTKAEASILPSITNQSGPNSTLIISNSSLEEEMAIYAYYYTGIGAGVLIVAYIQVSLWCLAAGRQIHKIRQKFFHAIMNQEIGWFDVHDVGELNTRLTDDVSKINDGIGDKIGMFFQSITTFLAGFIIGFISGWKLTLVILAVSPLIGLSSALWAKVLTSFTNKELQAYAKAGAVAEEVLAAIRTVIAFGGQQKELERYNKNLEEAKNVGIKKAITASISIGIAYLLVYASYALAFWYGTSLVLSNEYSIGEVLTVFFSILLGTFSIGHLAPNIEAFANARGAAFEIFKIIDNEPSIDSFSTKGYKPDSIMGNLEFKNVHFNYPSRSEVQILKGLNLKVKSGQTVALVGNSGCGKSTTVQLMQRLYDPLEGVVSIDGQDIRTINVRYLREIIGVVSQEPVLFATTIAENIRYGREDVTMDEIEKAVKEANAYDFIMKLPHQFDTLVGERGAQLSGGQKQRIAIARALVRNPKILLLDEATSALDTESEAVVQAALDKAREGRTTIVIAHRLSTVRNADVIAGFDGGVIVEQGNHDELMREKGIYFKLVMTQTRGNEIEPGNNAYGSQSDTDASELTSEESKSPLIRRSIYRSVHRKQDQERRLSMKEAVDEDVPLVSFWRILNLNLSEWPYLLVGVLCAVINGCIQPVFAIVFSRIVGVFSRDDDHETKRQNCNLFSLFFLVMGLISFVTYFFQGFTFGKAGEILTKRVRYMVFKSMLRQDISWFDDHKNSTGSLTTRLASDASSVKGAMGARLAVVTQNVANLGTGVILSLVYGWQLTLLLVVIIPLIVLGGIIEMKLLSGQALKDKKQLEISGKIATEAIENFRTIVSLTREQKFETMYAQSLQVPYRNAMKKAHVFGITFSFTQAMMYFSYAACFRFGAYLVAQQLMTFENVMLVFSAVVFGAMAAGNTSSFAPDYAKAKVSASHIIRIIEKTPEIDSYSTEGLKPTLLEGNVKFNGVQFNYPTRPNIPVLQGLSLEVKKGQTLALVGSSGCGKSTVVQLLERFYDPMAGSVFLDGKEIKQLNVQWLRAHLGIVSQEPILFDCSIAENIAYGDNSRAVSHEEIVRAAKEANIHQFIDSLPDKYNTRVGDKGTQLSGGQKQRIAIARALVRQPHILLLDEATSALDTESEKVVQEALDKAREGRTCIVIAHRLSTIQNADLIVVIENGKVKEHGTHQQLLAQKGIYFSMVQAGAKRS
- EXPERIMENT SUMMARY: TP_TRANSPORTER: inhibition of Calcein-AM efflux in Mdr1b-expressing LLC-PK1 cells
- Format: functional, cell-based
MEASUREMENT NAME: IC50

Here's what some known entries look like.
compound="CNC(=C[N+](=O)[O-])NCCSCc1ccc(CN(C)C)o1 [RANITIDINE]" measured_result="> 50 µM"
compound="C[C@H]1O[C@@H](O[C@H]2[C@@H](O)C[C@H](O[C@H]3[C@@H](O)C[C@H](O[C@H]4CC[C@@]5(C)[C@H](CC[C@@H]6[C@@H]5C[C@@H](O)[C@]5(C)[C@@H](C7=CC(=O)OC7)CC[C@]65O)C4)O[C@@H]3C)O[C@@H]2C)C[C@H](O)[C@@H]1O [DIGOXIN]" measured_result="> 50 µM"
compound="CC(C)(C)c1ccc(C(O)CCCN2CCC(C(O)(c3ccccc3)c3ccccc3)CC2)cc1 (stereo not given) [TERFENADINE]" measured_result="2 µM"
compound="Clc1ccccc1C(c1ccccc1)(c1ccccc1)n1ccnc1 [CLOTRIMAZOLE]" measured_result="3.5 µM"

Summary line: COCC(=O)O[C@]1(CCN(C)CCCc2nc3ccccc3[nH]2)CCc2cc(F)ccc2[C@@H]1C(C)C [MIBEFRADIL] , ATP-dependent translocase ABCB1 (Mus musculus, UniProt P06795), reported IC50 = 10 µM

Summary line: CC(C)(C)NC(=O)[C@@H]1C[C@@H]2CCCC[C@@H]2CN1C[C@@H](O)[C@H](Cc1ccccc1)NC(=O)[C@H](CC(N)=O)NC(=O)c1ccc2ccccc2n1 , ATP-dependent translocase ABCB1 (Mus musculus, UniProt P06795), reported IC50 = > 50 µM

---

- STUDY TARGET: ATP-dependent translocase ABCB1 (Homo sapiens)
- EXPERIMENT SUMMARY: Inhibition of P-gp was determined using rhodamine-assay in human CaCo-2 cells
- Format: functional, cell-based
- Set-up: concentration or dose not given beside the values
Cut-off 8% on Inhibition: below means Fulfilled, at or above means Not fulfilled.

Reference set (5 entries):
structure_as_smiles=CC1(C)SSC(C)(C)[C@@H](NC(=O)[C@@H](N)Cc2ccc(O)cc2)C(=O)NCC(=O)N[C@@H](Cc2ccccc2)C(=O)N[C@H]1C(=O)O cat=Fulfilled
structure_as_smiles=Cc1ncc2n1-c1ccc(Cl)cc1C(c1ccccc1F)=NC2 cat="Not fulfilled"
structure_as_smiles=C[C@@H]1C[C@H]2[C@@H]3CCC4=CC(=O)C=C[C@]4(C)[C@@]3(F)[C@@H](O)C[C@]2(C)[C@@]1(O)C(=O)CO cat=Fulfilled
structure_as_smiles=CN/C(=N/CCSCc1nc[nH]c1C)NC#N cat=Fulfilled
structure_as_smiles=COc1ccc(CCN2CCC(Nc3nc4ccccc4n3Cc3ccc(F)cc3)CC2)cc1 cat="Not fulfilled"

Lab note: Inhibition threshold 8%. Does this compound come in strictly under it? CC(C)(C)NC(=O)[C@@H]1C[C@@H]2CCCC[C@@H]2CN1C[C@@H](O)[C@H](Cc1ccccc1)NC(=O)[C@H](CC(N)=O)NC(=O)c1ccc2ccccc2n1
Not fulfilled

---

- STUDY TARGET: ATP-dependent translocase ABCB1 (Homo sapiens, UniProt P08183)
- Sequence (P08183 whole entry): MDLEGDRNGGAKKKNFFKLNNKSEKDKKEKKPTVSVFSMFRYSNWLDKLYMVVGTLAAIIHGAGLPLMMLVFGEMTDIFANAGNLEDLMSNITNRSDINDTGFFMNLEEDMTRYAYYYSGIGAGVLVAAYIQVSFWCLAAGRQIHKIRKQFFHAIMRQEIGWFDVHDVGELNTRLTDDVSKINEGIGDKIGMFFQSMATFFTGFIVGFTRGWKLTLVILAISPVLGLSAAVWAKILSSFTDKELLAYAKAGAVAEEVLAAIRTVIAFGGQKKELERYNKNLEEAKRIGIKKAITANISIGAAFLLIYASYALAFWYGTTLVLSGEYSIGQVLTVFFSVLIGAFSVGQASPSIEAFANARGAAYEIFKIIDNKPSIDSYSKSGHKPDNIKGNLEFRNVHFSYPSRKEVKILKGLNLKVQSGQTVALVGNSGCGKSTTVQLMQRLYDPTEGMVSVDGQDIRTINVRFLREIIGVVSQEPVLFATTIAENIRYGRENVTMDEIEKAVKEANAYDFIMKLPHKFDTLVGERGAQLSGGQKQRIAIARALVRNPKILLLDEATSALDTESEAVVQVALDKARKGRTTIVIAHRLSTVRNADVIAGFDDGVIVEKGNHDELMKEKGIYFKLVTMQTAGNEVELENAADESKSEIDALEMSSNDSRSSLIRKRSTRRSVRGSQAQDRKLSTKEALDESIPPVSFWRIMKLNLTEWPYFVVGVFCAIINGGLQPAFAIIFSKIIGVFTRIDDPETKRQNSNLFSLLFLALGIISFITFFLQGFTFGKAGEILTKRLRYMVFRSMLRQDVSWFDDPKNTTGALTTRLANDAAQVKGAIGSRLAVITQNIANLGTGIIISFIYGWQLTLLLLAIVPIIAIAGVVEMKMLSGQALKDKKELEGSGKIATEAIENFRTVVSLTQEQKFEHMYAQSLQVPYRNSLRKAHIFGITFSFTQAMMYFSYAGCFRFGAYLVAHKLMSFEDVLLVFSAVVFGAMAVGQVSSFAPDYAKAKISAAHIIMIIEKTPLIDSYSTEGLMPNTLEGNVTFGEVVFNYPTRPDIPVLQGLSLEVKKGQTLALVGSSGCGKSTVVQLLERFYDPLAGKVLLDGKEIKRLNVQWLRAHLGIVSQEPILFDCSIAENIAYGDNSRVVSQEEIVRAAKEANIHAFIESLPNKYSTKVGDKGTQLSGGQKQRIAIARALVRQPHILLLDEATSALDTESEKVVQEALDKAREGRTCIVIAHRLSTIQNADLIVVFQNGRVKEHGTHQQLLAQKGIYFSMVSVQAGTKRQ
- EXPERIMENT SUMMARY: Inhibition of P-glycoprotein using ATPase in MDR1 membranes
- Assay type: functional, cell membranes
MEASUREMENT NAME: Activity (nmol/min/mg)
// note: answer is a bare numeric in nmol/min/mg

compound=C=C[C@H]1C[N@@]2CC[C@H]1C[C@@H]2[C@@H](O)c1ccnc2ccc(OC)cc12 study_target="ATP-dependent translocase ABCB1 (Homo sapiens, UniProt P08183)" measured_result=20
compound=CN/C(=C\[N+](=O)[O-])NCCSCc1ccc(CN(C)C)o1 study_target="ATP-dependent translocase ABCB1 (Homo sapiens, UniProt P08183)" measured_result=-2.4
compound=COc1ccc(CCN2CCC(Nc3nc4ccccc4n3Cc3ccc(F)cc3)CC2)cc1 study_target="ATP-dependent translocase ABCB1 (Homo sapiens, UniProt P08183)" measured_result=18
compound=CC[C@]1(O)C[C@@H]2CN(CCc3c([nH]c4ccccc34)[C@@](C(=O)OC)(c3cc4c(cc3OC)N(C)[C@H]3[C@@](O)(C(=O)OC)[C@H](OC(C)=O)[C@]5(CC)C=CCN6CC[C@]43[C@@H]65)C2)C1 study_target="ATP-dependent translocase ABCB1 (Homo sapiens, UniProt P08183)" measured_result=33
compound=Clc1ccccc1C(c1ccccc1)(c1ccccc1)n1ccnc1 study_target="ATP-dependent translocase ABCB1 (Homo sapiens, UniProt P08183)" measured_result=7.5
compound="CCC(C)n1ncn(-c2ccc(N3CCN(c4ccc(OC[C@H]5CO[C@](Cn6cncn6)(c6ccc(Cl)cc6Cl)O5)cc4)CC3)cc2)c1=O (some centres undefined)" study_target="ATP-dependent translocase ABCB1 (Homo sapiens, UniProt P08183)" measured_result=18
compound="CC(C)(C)c1ccc(C(O)CCCN2CCC(C(O)(c3ccccc3)c3ccccc3)CC2)cc1 (centres undefined)" study_target="ATP-dependent translocase ABCB1 (Homo sapiens, UniProt P08183)" measured_result=0.4
compound="Clc1ccc(COC(Cn2ccnc2)c2ccc(Cl)cc2Cl)c(Cl)c1 (centres undefined)" study_target="ATP-dependent translocase ABCB1 (Homo sapiens, UniProt P08183)" measured_result=1
compound="COC(=O)C1=C(C)NC(C)=C(C(=O)OCCN(C)Cc2ccccc2)C1c1cccc([N+](=O)[O-])c1 (centres undefined)" study_target="ATP-dependent translocase ABCB1 (Homo sapiens, UniProt P08183)" measured_result=18
compound=COc1cc2c(c(OC)c1OC)-c1ccc(OC)c(=O)cc1[C@@H](NC(C)=O)CC2 study_target="ATP-dependent translocase ABCB1 (Homo sapiens, UniProt P08183)" measured_result=0.1

// recorded Activity for CN/C(=N/CCSCc1nc[nH]c1C)NC#N : 2.8

// recorded Activity for Cc1ncc2n1-c1ccc(Cl)cc1C(c1ccccc1F)=NC2 : 6

// recorded Activity for Cc1c(O)cccc1C(=O)N[C@@H](CSc1ccccc1)[C@H](O)CN1C[C@H]2CCCC[C@H]2C[C@H]1C(=O)NC(C)(C)C : 6.2

// recorded Activity for CC1(C)SSC(C)(C)[C@@H](NC(=O)[C@@H](N)Cc2ccc(O)cc2)C(=O)NCC(=O)N[C@@H](Cc2ccccc2)C(=O)N[C@H]1C(=O)O : 4

---

Items are presented alongside their recorded IC50.
- STUDY TARGET: ATP-dependent translocase ABCB1 (Mus musculus, UniProt P06795)
- EXPERIMENT SUMMARY: Inhibition of P-glycoprotein, mouse L-mdr1b expressed in LLC-PK1 epithelial cells using calcein-AM polarisation assay
- Assay type: functional, cell-based

Here's what some known entries look like.
compound=C[C@H]1O[C@@H](O[C@H]2[C@@H](O)C[C@H](O[C@H]3[C@@H](O)C[C@H](O[C@H]4CC[C@@]5(C)[C@H](CC[C@@H]6[C@@H]5C[C@@H](O)[C@]5(C)[C@@H](C7=CC(=O)OC7)CC[C@]65O)C4)O[C@@H]3C)O[C@@H]2C)C[C@H](O)[C@@H]1O measured_result="> 50 µM"
compound="O=c1[nH]c2ccccc2n1C1CCN(CCCC(c2ccc(F)cc2)c2ccc(F)cc2)CC1 [PIMOZIDE]" measured_result="> 50 µM"
compound=CN/C(=N/CCSCc1nc[nH]c1C)NC#N measured_result="> 50 µM"
compound=CC[C@]1(O)C[C@@H]2CN(CCc3c([nH]c4ccccc34)[C@@](C(=O)OC)(c3cc4c(cc3OC)N(C)[C@H]3[C@@](O)(C(=O)OC)[C@H](OC(C)=O)[C@]5(CC)C=CCN6CC[C@]43[C@@H]65)C2)C1 measured_result="8 µM"
compound=C[C@@H]1C[C@H]2[C@@H]3CCC4=CC(=O)C=C[C@]4(C)[C@@]3(F)[C@@H](O)C[C@]2(C)[C@@]1(O)C(=O)CO measured_result="> 50 µM"

Here is the next item to consider.
// recorded IC50 for CN/C(=C\[N+](=O)[O-])NCCSCc1ccc(CN(C)C)o1 : > 50 µM
